biological target: PRMT5-MEP50 enzyme (Homo sapiens, UniProt O14744); construct: One virus expresses full length human PRMT5 with Flag-tag at N-terminus; assay: In vitro assay (Assay 1): PRMT5-MEP50 high throughput mass spectrometer assay, inhibition of SAH formation; assay type: biochemical; details: individual measurements shown, read-out: pIC50 Assay 1 (converted)
Sequence (O14744 whole entry): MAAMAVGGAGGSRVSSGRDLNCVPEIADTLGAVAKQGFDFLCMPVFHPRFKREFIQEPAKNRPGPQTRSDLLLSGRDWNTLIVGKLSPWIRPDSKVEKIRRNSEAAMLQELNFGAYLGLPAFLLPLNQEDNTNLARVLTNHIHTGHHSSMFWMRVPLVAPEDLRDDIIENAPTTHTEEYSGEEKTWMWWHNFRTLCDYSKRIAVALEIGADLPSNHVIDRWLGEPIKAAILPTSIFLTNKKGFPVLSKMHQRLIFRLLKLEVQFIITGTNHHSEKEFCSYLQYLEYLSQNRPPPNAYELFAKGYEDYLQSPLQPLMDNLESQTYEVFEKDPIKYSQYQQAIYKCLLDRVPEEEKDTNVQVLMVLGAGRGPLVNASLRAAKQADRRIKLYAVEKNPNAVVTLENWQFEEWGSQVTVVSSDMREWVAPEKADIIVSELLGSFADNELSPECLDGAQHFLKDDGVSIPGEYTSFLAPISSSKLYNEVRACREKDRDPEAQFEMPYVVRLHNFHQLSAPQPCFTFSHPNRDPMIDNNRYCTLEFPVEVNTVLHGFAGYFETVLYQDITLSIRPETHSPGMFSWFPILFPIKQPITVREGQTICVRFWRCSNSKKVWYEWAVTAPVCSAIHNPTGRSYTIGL
Sequence (Q9BQA1 whole entry partner): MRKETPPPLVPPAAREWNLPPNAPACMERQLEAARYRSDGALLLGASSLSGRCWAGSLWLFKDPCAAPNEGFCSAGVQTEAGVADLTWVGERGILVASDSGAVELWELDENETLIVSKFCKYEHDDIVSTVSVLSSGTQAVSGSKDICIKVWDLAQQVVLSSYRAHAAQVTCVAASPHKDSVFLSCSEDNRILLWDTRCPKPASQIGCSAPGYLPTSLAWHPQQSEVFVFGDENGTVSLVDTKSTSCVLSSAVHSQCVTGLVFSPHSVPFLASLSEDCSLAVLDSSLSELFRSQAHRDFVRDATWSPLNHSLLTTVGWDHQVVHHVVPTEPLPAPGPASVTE
MEASURED PROPERTY: IC50

CN1CCC2(C1)CN(C[C@H]1O[C@@H](n3cnc4c(N)ncnc43)[C@H](O)[C@@H]1O)C2 :: > 100 µM
Nc1ncnc2c1ccn2[C@@H]1O[C@H](CN2CCCC2(CN2CCCC2)C(F)(F)F)[C@@H](O)[C@H]1O (some centres unmarked) :: > 10 µM
CC(C)C(=O)O[C@@H]1[C@H](OC(=O)C(C)C)[C@@H](CN2CCCC23CCN(C)CC3)O[C@H]1c1ccc2c(N)ncnn12 :: > 10 µM
CN(C)C[C@@H]1COCCN1C[C@H]1O[C@@H](c2ccc3c(N)ncnn23)[C@H](O)[C@@H]1O :: > 10 µM

We next turn to a different compound, shown below.
Query (compound): Nc1ncnn2c([C@@H]3O[C@H](CN4CCOC[C@H]4CN4CCCC4)[C@@H](O)[C@H]3O)ccc12 ; field requested: IC50
> 10 µM

====

This listing pairs molecules with measured IC50.
molecular target: PRMT5-MEP50 enzyme (Homo sapiens, UniProt O14744); construct: One virus expresses full length human PRMT5 with Flag-tag at N-terminus; experiment: In vitro assay (Assay 1): PRMT5-MEP50 high throughput mass spectrometer assay, inhibition of SAH formation; type: biochemical; settings: individual measurements shown, read-out: pIC50 Assay 1 (converted)
Report the figure in nM without appending any unit label.

For orientation, consider the following solved cases.
CN1CCC2(CCCN2C[C@H]2O[C@@H](n3ccc4c(N)nc(Cl)nc43)[C@H](O)[C@@H]2O)CC1 :: 56.2
Nc1ncnc2c1ccn2[C@@H]1O[C@H](CN2CC(F)(F)CC23CCN(CCC2CC2)CC3)[C@@H](O)[C@H]1O :: 25.1
Nc1ncnc2c1ncn2[C@@H]1O[C@H](CN2CCC23CNC3)[C@@H](O)[C@H]1O :: 2750

Kindly review the next molecule as well.
Give the measured IC50 of Nc1ncnn2c([C@@H]3O[C@H](CN4CCOC5(CNC5)C4)[C@@H](O)[C@H]3O)ccc12 .
2240
